# reported binding signal fold over 6E7 parental; entries follow
# TEST SYSTEM: T1, human TREM2 (human, UniProt Q9NZC2 19-174, limits assumed)
# T1 sequence: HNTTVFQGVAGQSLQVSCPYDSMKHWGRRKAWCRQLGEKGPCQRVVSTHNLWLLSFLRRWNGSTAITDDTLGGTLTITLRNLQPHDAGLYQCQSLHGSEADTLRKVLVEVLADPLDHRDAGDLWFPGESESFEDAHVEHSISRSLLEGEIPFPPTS
# EXPERIMENTAL PROTOCOL: yeast-displayed Fab FACS, 2nd screen 10 nM
Please respond with the number in fold and leave the unit unwritten.

Illustrative cases are given below, each with its answer.
V49 (Fab, V domains shown) VH: EVQLVQSGAEVKKPGESLKISCKGSGYSFNSYWIAWVRQMPGKGLEWMGTIYPGDSDTRLSPSFQGQVTISADKSISTAYLQWSSLKASDTAMYFCARSRTFYYDSSDYFDYWGQGTLVTVSS VL: DIQMTQSPSSVSASVGDRVTITCRASQGISSWLAWYQQKPGKAPKLLIYAASSRQNGVPSRFSGSGSGTDFTLTISSLQPEDFATYFCQQADSYPRTFGQGTKLEIK	6.58
V1 (Fab, V domains shown) VH: EVQLVQSGAEVKKPGESLKISCKGSGYSFTSSWIAWVRQMPGKGLEWMGIIYPGDSDTRYSPSFQGQVTISADKSISTAYLQWSSLKASDTAMYFCARSRTFYYDSSDYFDYWGQGTLVTVSS VL: DIQMTQSPSSVSASVGDRVTITCRASQGISSWLAWYQQKPGKAPKLLIYAASSLTNGVPSRFSGSGSGTDFTLTISSLQPEDFATYFCQQADSYPRTFGQGTKLEIK	1.92
V72 (Fab, V domains shown) VH: EVQLVQSGAEVKKPGESLKISCKGSGYSFTSYWIGWVRQMPGKGLEWMGIIYPGDSDTRYSPSFQGQVTISADKSISTAYLQWSSLKASDTAMYFCARGRTFYYDSSDYFDYWGQGTLVTVSS VL: DIQMTQSPSSVSASVGDRVTITCRASQGISSWLAWYQQKPGKAPKLLIYAASSLVNGVPSRFSGSGSGTDFTLTISSLQPEDFATYFCQQADSYPRTFGQGTKLEIK	4.01
V62 (Fab, V domains shown) VH: EVQLVQSGAEVKKPGESLKISCKGSGYSFGSYWIAWVRQMPGKGLEWMGIIYPGDSDTRYAPSFQGQVTISADKSISTAYLQWSSLKASDTAMYFCARQRTFYYDSSGYFDYWGQGTLVTVSS VL: DIQMTQSPSSVSASVGDRVTITCRASQGISSWLAWYQQKPGKAPKLLIYAASSLQRGVPSRFSGSGSGTDFTLTISSLQPEDFATYFCGQADSFPRTFGQGTKLEIK	2.89
V89 (Fab, V domains shown) VH: EVQLVQSGAEVKKPGESLKISCKGSGYSFTSYWIAWVRQMPGKGLEWMGIIYPGDSDTRYSPSFQGQVTISADKSISTAYLQWSSLKASDTAMYFCARQRTFYYDSSDYFDYWGQGTLVTVSS VL: DIQMTQSPSSVSASVGDRVTITCRASQGISSWLAWYQQKPGKAPKLLIYAASSLQNGVPSRFSGSGSGTDFTLTISSLQPEDFATYFCQQADSHPRTFGQGTKLEIK	1.46

INPUT: I would be grateful if you could share the reported binding signal fold over 6E7 parental for V13 (Fab, V domains shown) VH: EVQLVQSGAEVKKPGESLKISCKGSGYSFGSYWIAWVRQMPGKGLEWMGIIYPGDSDTRYSASFQGQVTISADKSISTAYLQWSSLKASDTAMYFCARGRTFYYDSSDYFDYWGQGTLVTVSS VL: DIQMTQSPSSVSASVGDRVTITCRASQGISSWLAWYQQKPGKAPKLLIYAASSLQGGVPSRFSGSGSGTDFTLTISSLQPEDFATYFCQQADSMPRTFGQGTKLEIK .
OUTPUT: 1.35

Just for reference, patent US20220204611A1 is where these values come from.
